- Tested on: blood stage
- Assay: Blood stage assays
- Type: cell-based
- Test Conditions: Plasmodium berghei, read-out: IC50 in blood stage assays
Readout Name: pIC50
Answers are plain numbers, as −log10 of the molar value.

Consider the molecule O=C1C(O)=C([C@H]2CC[C@H](c3ccc(Cl)cc3)CC2)C(=O)c2ccccc21 . State its measured pIC50.
9.52
